// data source = PubChem BioAssay AID1963870

- Test system: 292921-168-R-J2-PDC KRAS tumor spheroid viability
- Assay Info: Anticancer human tumor 292921-168-R-J2-PDC patient-derived pancreatic carcinoma cell line growth inhibition [KRAS2]
- Cond: second compound 10 µM; first compound 0.0316 µM; hits give low values; spheroids with HUVEC and MSC
# if measured viability, T/C < 10%: MET  # else: NOT MET

>  <Compound>
CC1COCCN1c1cc(-c2ccnn2C)c2ccnc(-c3ccn[nH]3)c2n1 (stereo not given) + CC1OCC2(CCN(c3cnc(Sc4ccnc(N)c4Cl)c(N)n3)CC2)C1N

>  <Assigned Label>
NOT MET

$$$$
>  <Compound>
CC(=O)Nc1cccc(-n2c(=O)n(C3CC3)c(=O)c3c(Nc4ccc(I)cc4F)n(C)c(=O)c(C)c32)c1 + COc1cc2nc(C)nc(NC(C)c3cc(N)cc(C(F)(F)F)c3)c2cc1OC1CCOC1

>  <Assigned Label>
MET

$$$$
>  <Compound>
Cn1ncnc1[C@H]1c2n[nH]c(=O)c3cc(F)cc(c23)N[C@@H]1c1ccc(F)cc1 + CC1OCC2(CCN(c3cnc(Sc4ccnc(N)c4Cl)c(N)n3)CC2)C1N

>  <Assigned Label>
NOT MET

$$$$
>  <Compound>
CCNC(=O)CC1N=C(c2ccc(Cl)cc2)c2cc(OC)ccc2-n2c(C)nnc21 (stereo not given) + C=CC(=O)N1CCN(c2nc(=O)n(-c3c(C)ccnc3C(C)C)c3nc(-c4c(O)cccc4F)c(F)cc23)C(C)C1

>  <Assigned Label>
NOT MET

$$$$
>  <Compound>
CC(=O)OC12COC1CC(O)C1(C)C(=O)C(O)C3=C(C)C(OC(=O)C(O)C(NC(=O)OC(C)(C)C)c4ccccc4)CC(O)(C(OC(=O)c4ccccc4)C21)C3(C)C (stereo not given) + C=CC(=O)N1CCN(c2nc(=O)n(-c3c(C)ccnc3C(C)C)c3nc(-c4c(O)cccc4F)c(F)cc23)C(C)C1

>  <Assigned Label>
NOT MET

$$$$
>  <Compound>
Cn1nccc1Nc1nccc(-c2cc3c(s2)C(C)(C)N(CCN2CCOCC2)C3=O)n1 + CNCc1ccccc1-c1csc(C(C)Nc2nc(C)nc3cc(OC)c(OC)cc23)c1

>  <Assigned Label>
MET

$$$$
>  <Compound>
CC(C)NCC(C(=O)N1CCN(c2ncnc3c2C(C)CC3O)CC1)c1ccc(Cl)cc1 (stereo not given) + C=CC(=O)N1CCN(c2nc(=O)n(-c3c(C)ccnc3C(C)C)c3nc(-c4c(O)cccc4F)c(F)cc23)C(C)C1

>  <Assigned Label>
NOT MET

$$$$
>  <Compound>
COC(=O)c1ccc2c(C(=Nc3ccc(N(C)C(=O)CN4CCN(C)CC4)cc3)c3ccccc3)c(O)[nH]c2c1 + CNCc1ccccc1-c1csc(C(C)Nc2nc(C)nc3cc(OC)c(OC)cc23)c1

>  <Assigned Label>
MET

$$$$
>  <Compound>
COc1cc(Nc2ncc3c(n2)-c2ccc(Cl)cc2C(c2c(F)cccc2OC)=NC3)ccc1C(=O)O + COc1cc2nc(C)nc(NC(C)c3cc(N)cc(C(F)(F)F)c3)c2cc1OC1CCOC1

>  <Assigned Label>
NOT MET

$$$$
>  <Compound>
CC(=O)OC12COC1CC(O)C1(C)C(=O)C(O)C3=C(C)C(OC(=O)C(O)C(NC(=O)OC(C)(C)C)c4ccccc4)CC(O)(C(OC(=O)c4ccccc4)C21)C3(C)C (stereo not given) + CC1OCC2(CCN(c3cnc(Sc4ccnc(N)c4Cl)c(N)n3)CC2)C1N

>  <Assigned Label>
NOT MET

$$$$

###

Below: a set of entries, each annotated with reported viability, T/C.
- Tested on: 292921-168-R-J2-PDC KRAS tumor spheroid viability
- Assay Info: Anticancer human tumor 292921-168-R-J2-PDC cell line growth inhibition [KRAS2];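 note: drug exposure lasted seven days after spheroids formed for three days; percent of DMSO vehicle control viability which is 100%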
- Cond: second compound 3.16 µM; first compound 10 µM; hits give low values; spheroids with HUVEC and MSC
- Description: Multicellular complex tumor spheroid response to RAS pathway inhibitors in combination with a targeted agents in patient-derived cell lines with oncogenic KRAS variants from multiple cancer types A high-throughput screen of multi-cell type tumor spheroids was designed to identify active combinations of targeted small molecules and KRAS pathway inhibitors. […] Compounds. […] If the clinical Cmax for an agent had not been determined, the highest concentration tested was 10 microM. […]
Experimental Readout: viability, T/C (%)

>  <Molecule>
CC1(C)CCC(CN2CCN(c3ccc(C(=O)NS(=O)(=O)c4ccc(NCC5CCOCC5)c([N+](=O)[O-])c4)c(Oc4cnc5[nH]ccc5c4)c3)CC2)=C(c2ccc(Cl)cc2)C1 + C=CC(=O)N1CCN(c2nc(=O)n(-c3c(C)ccnc3C(C)C)c3nc(-c4c(O)cccc4F)c(F)cc23)C(C)C1

>  <Assay Value>
10.9

$$$$
>  <Molecule>
COC(=O)c1ccc2c(C(=Nc3ccc(N(C)C(=O)CN4CCN(C)CC4)cc3)c3ccccc3)c(O)[nH]c2c1 + CNCc1ccccc1-c1csc(C(C)Nc2nc(C)nc3cc(OC)c(OC)cc23)c1

>  <Assay Value>
0.68

$$$$
>  <Molecule>
CC1(C)CCC(CN2CCN(c3ccc(C(=O)NS(=O)(=O)c4ccc(NCC5CCOCC5)c([N+](=O)[O-])c4)c(Oc4cnc5[nH]ccc5c4)c3)CC2)=C(c2ccc(Cl)cc2)C1 + CNCc1ccccc1-c1csc(C(C)Nc2nc(C)nc3cc(OC)c(OC)cc23)c1

>  <Assay Value>
0.64

$$$$

###

- System: 292921-168-R-J2-PDC KRAS tumor spheroid viability
- Assay Info: Anticancer human tumor 292921-168-R-J2-PDC cell line growth inhibition [KRAS2];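 note: drug exposure lasted seven days after spheroids formed for three days; percent of DMSO vehicle control viability which is 100%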
- Cond: second compound 0.0316 µM; first compound 0.01 µM; hits give low values; spheroids with HUVEC and MSC
- From the text: Multicellular complex tumor spheroid response to RAS pathway inhibitors in combination with a targeted agents in patient-derived cell lines with oncogenic KRAS variants from multiple cancer types A high-throughput screen of multi-cell type tumor spheroids was designed to identify active combinations of targeted small molecules and KRAS pathway inhibitors. […] Compounds. […] If the clinical Cmax for an agent had not been determined, the highest concentration tested was 10 microM. […]
Below: a set of entries, each annotated with reported viability, T/C.
Experimental Readout: viability, T/C

>  <Compound>
CC(C)n1nc(-c2ccc3oc(N)nc3c2)c2c(N)ncnc21 + C=CC(=O)N1CCN(c2nc(OCC3CCCN3C)nc3c2CCN(c2cccc4cccc(C)c24)C3)CC1CC#N

>  <Assay Value>
30.8%

$$$$
>  <Compound>
Cn1ncnc1[C@H]1c2n[nH]c(=O)c3cc(F)cc(c23)N[C@@H]1c1ccc(F)cc1 + C=CC(=O)N1CCN(c2nc(OCC3CCCN3C)nc3c2CCN(c2cccc4cccc(C)c24)C3)CC1CC#N

>  <Assay Value>
93.6%

$$$$
>  <Compound>
CN(C)C/C=C/C(=O)Nc1cc2c(Nc3ccc(F)c(Cl)c3)ncnc2cc1O[C@H]1CCOC1 + C=CC(=O)N1CCN(c2nc(OCC3CCCN3C)nc3c2CCN(c2cccc4cccc(C)c24)C3)CC1CC#N

>  <Assay Value>
85.3%

$$$$
>  <Compound>
CC1COCCN1c1cc(-c2ccnn2C)c2ccnc(-c3ccn[nH]3)c2n1 (stereo unspecified) + C=CC(=O)N1CCN(c2nc(OCC3CCCN3C)nc3c2CCN(c2cccc4cccc(C)c24)C3)CC1CC#N

>  <Assay Value>
38.6%

$$$$
>  <Compound>
CC(=O)Nc1cccc(-n2c(=O)n(C3CC3)c(=O)c3c(Nc4ccc(I)cc4F)n(C)c(=O)c(C)c32)c1 + C=CC(=O)N1CCN(c2nc(OCC3CCCN3C)nc3c2CCN(c2cccc4cccc(C)c24)C3)CC1CC#N

>  <Assay Value>
11.9%

$$$$
>  <Compound>
CC(=O)OC12COC1CC(O)C1(C)C(=O)C(O)C3=C(C)C(OC(=O)C(O)C(NC(=O)OC(C)(C)C)c4ccccc4)CC(O)(C(OC(=O)c4ccccc4)C21)C3(C)C (stereo unspecified) + C=CC(=O)N1CCN(c2nc(OCC3CCCN3C)nc3c2CCN(c2cccc4cccc(C)c24)C3)CC1CC#N

>  <Assay Value>
12.8%

$$$$

###

- Test system: 292921-168-R-J2-PDC KRAS tumor spheroid viability
- Assay Info: Anticancer human tumor 292921-168-R-J2-PDC cell line growth inhibition [KRAS2];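 note: drug exposure lasted seven days after spheroids formed for three days; percent of DMSO vehicle control viability which is 100%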
- Cond: second compound 10 µM; first compound 0.01 µM; hits give low values; spheroids with HUVEC and MSC

>  <Compound>
CC(=O)OC12COC1CC(O)C1(C)C(=O)C(O)C3=C(C)C(OC(=O)C(O)C(NC(=O)OC(C)(C)C)c4ccccc4)CC(O)(C(OC(=O)c4ccccc4)C21)C3(C)C (stereo unspecified) + CC1OCC2(CCN(c3cnc(Sc4ccnc(N)c4Cl)c(N)n3)CC2)C1N

>  <viability, T/C>
13.7%

$$$$
>  <Compound>
CC1COCCN1c1cc(-c2ccnn2C)c2ccnc(-c3ccn[nH]3)c2n1 (stereo unspecified) + CC1OCC2(CCN(c3cnc(Sc4ccnc(N)c4Cl)c(N)n3)CC2)C1N

>  <viability, T/C>
25.3%

$$$$
>  <Compound>
Cn1ncnc1[C@H]1c2n[nH]c(=O)c3cc(F)cc(c23)N[C@@H]1c1ccc(F)cc1 + COc1cc2nc(C)nc(NC(C)c3cc(N)cc(C(F)(F)F)c3)c2cc1OC1CCOC1

>  <viability, T/C>
22.6%

$$$$
>  <Compound>
Cn1ncnc1[C@H]1c2n[nH]c(=O)c3cc(F)cc(c23)N[C@@H]1c1ccc(F)cc1 + C=CC(=O)N1CCN(c2nc(=O)n(-c3c(C)ccnc3C(C)C)c3nc(-c4c(O)cccc4F)c(F)cc23)C(C)C1

>  <viability, T/C>
21.9%

$$$$
>  <Compound>
CC1COCCN1c1cc(-c2ccnn2C)c2ccnc(-c3ccn[nH]3)c2n1 (stereo unspecified) + CNCc1ccccc1-c1csc(C(C)Nc2nc(C)nc3cc(OC)c(OC)cc23)c1

>  <viability, T/C>
0.11%

$$$$
>  <Compound>
CCN1CCN(Cc2ccc(Nc3ncc(F)c(-c4cc(F)c5nc(C)n(C(C)C)c5c4)n3)nc2)CC1 + COc1cc2nc(C)nc(NC(C)c3cc(N)cc(C(F)(F)F)c3)c2cc1OC1CCOC1

>  <viability, T/C>
15.9%

$$$$
>  <Compound>
CN(C)C/C=C/C(=O)Nc1cc2c(Nc3ccc(F)c(Cl)c3)ncnc2cc1O[C@H]1CCOC1 + CC1OCC2(CCN(c3cnc(Sc4ccnc(N)c4Cl)c(N)n3)CC2)C1N

>  <viability, T/C>
88.3%

$$$$
>  <Compound>
Cn1ncnc1[C@H]1c2n[nH]c(=O)c3cc(F)cc(c23)N[C@@H]1c1ccc(F)cc1 + CNCc1ccccc1-c1csc(C(C)Nc2nc(C)nc3cc(OC)c(OC)cc23)c1

>  <viability, T/C>
0.87%

$$$$
>  <Compound>
CN(C)C/C=C/C(=O)Nc1cc2c(Nc3ccc(F)c(Cl)c3)ncnc2cc1O[C@H]1CCOC1 + C=CC(=O)N1CCN(c2nc(=O)n(-c3c(C)ccnc3C(C)C)c3nc(-c4c(O)cccc4F)c(F)cc23)C(C)C1

>  <viability, T/C>
23%

$$$$
>  <Compound>
CC1COCCN1c1cc(-c2ccnn2C)c2ccnc(-c3ccn[nH]3)c2n1 (stereo unspecified) + COc1cc2nc(C)nc(NC(C)c3cc(N)cc(C(F)(F)F)c3)c2cc1OC1CCOC1

>  <viability, T/C>
12.9%

$$$$
>  <Compound>
CC(C)n1nc(-c2ccc3oc(N)nc3c2)c2c(N)ncnc21 + CNCc1ccccc1-c1csc(C(C)Nc2nc(C)nc3cc(OC)c(OC)cc23)c1

>  <viability, T/C>
0.09%

$$$$
